# Granzyme B, Luminex (supernatant) values compiled below
Molecular target: T1, T cell receptor (TCR) Vγ9 (TRGV9) (human, UniProt Q99603 21-122); also: unit not given here
T1 sequence (looked up): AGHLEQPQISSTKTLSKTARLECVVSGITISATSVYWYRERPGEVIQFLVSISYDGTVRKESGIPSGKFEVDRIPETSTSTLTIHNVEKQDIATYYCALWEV
Assay: cell-based or functional assay
The answer should be a number; do not append a unit.

VG9B195 (antibody, human IgG1, lambda, V domains shown) VH: EVQLVESGGGLVKPGGSLRLSCAASGFTFSPYTMNWVRQAPGKGLEWVSSISSSSSYMYYADSVKGRFTISRDNAKNSLYLQMNSLRAEDTAVYYCARDGDLVGPTYYFDYWGQGTLVTVSS VL: SYELMQPPSVSVSPGQTASITCSGDKLGDKYACWYQQKPGQSPVLVIYQHNKRPSGIPERFSGSNSGKTATLTISGTQAMDEADYYCQAWDSTTVVFGGGTKLTVLG	1060
VG9B46 (antibody, human IgG1, kappa, V domains shown) VH: EVQLVESGGGLVKPGGSLRLSCEASGFTFSINSMNWVRQAPGKGLEWVSSISSTSDYIFNADSVKGRFTISRDNAKNSLYLQMNSLRAEDTAVYYCVRDDVFGAFDIWGQGTMVTVSS VL: EIVLTQSPGTLSLSPGERATLSCRTSQSVSRSYLGWYQQKPGQPPRLLIFGSSSRATGIPDRFSGSGSGTDFTLTISRLEPEDFAVYYCQQYSRSPLTFGGGTKVDIKR	3170

We now examine a further binder.
Briefly, Granzyme B, Luminex (supernatant) measured for VG9B121 (antibody, human IgG1, kappa, V domains shown) VH: EVQLVESGGGLVKPGGSLRLSCVASGFTFSDYAMDWVRQAPGKGLDWISSISSTSNYIFYADSVKGRFTISRDNAKNSLYLQMNSLRVEDSAVYYCANSYNWNYGGAFDIWGQGTMVTVSS VL: DIQMTQSPGTLSSSPGERATLSCRASQSVSSSYFAWYQQKPGRAPRLLIYGASSRATGIPDRFSGSGSGTDFTLTISRLEPEDFAVYFCQQYGRSPLTFGGGTKVEIKR : 1350
